Values were extracted from patent US20250145606A1.

- SYSTEM_NAME: PDGFRα (Homo sapiens (Human), UniProt P16234)
- Sequence (P16234 24-1089): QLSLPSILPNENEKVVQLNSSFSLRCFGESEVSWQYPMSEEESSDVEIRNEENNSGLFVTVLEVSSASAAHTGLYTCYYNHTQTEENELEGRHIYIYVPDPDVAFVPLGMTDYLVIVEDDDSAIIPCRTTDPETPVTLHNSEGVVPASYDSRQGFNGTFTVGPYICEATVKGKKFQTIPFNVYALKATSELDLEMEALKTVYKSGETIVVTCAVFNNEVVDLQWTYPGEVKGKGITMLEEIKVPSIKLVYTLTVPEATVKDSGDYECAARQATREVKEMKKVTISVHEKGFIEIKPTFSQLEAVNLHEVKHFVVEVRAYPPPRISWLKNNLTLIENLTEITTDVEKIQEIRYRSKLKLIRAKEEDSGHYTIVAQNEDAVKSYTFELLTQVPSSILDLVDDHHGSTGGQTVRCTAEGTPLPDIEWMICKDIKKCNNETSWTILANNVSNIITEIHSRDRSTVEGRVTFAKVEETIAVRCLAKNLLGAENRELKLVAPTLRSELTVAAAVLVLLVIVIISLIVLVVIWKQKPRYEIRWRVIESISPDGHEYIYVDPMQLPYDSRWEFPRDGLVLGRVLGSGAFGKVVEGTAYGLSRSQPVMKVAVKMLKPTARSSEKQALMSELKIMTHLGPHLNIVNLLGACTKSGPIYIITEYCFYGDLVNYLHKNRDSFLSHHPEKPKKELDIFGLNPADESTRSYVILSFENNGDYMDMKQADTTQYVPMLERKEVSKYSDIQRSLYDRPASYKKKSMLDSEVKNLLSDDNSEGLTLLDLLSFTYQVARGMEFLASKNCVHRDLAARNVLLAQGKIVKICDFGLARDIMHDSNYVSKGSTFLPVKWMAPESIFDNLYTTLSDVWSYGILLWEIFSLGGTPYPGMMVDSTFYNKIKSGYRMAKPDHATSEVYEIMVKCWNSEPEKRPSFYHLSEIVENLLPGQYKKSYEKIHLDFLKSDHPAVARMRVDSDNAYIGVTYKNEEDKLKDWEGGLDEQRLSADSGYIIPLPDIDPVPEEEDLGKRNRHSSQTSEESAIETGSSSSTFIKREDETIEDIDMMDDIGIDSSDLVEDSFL
- PROCEDURE_SUMMARY: Inhibition of PDGFRα kinase activity (HTRF KinEASE-TK)
- CONDITIONS: biochemical
# IC50 annotations

CHEMICAL_STRUCTURE	IC50
Cc1cc(F)c(C(=O)Nc2ccc(CC3CC3)cn2)cc1NC(=O)c1cnc(N)s1	0.1 to 1 µM
Cc1cc(F)c(C(=O)Nc2ccc(OC3CC3)cn2)cc1NC(=O)c1cnc(NC(=O)N2CCC2)s1	< 0.1 µM

Next item in the queue.
Briefly, IC50 measured for `COCc1ccc(NC(=O)c2cc(NC(=O)c3cnc(N)s3)c(C)cc2F)nc1` : > 1 µM
